B1: PTPN9 (parent)
chain: ILFSLPPALDWDSVHVPGPHAMTI

Variants of: B1
assay.summary: protein stability index of a GFP-peptide fusion (GPS, HEK-293T) (PSI 1-6); higher = more stable;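 note: lentivirally expressed fusions sorted by FACS into six bins by GFP to DsRed ratio, PSI derived from sequencing read proportions per bin multiplied by bin number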
setup.conditions: c terminus: a fixed tail appended
endpoint.label: protein stability index
// print number alone

Study these solved cases before continuing.
# variant.identifier, protein stability index
measured = [
    ("W11T", 2.23),
    ("G18K", 1.61),
    ("F3Y", 2.21),
    ("P7A", 1.87),
    ("S4H", 3.16),
]

Look up protein stability index for this variant: H15Q
1.81

Query (variant): L9T ; field requested: protein stability index
3.24

Suppose we examine the variant F3S ; what protein stability index value has been reported?
1.49

# input variant: P17R ; wanted: its protein stability index
2.87

What value of protein stability index has been reported for the following variant? I24K
2.06

Look at this variant and give its reported protein stability index. V14F
4.29

Tell me the measured protein stability index of M22W , please.
3.35
